- subject-of-test: Delta-type opioid receptor (Homo sapiens)
- protocol-summary: activators in OPRD1-only cells, late-stage follow-up, counter-screen for OPRM1-OPRD1 heterodimer activator project, cell-based, luminescence, dose response, set 2 (AID 651764)
- applied-conditions: OPRD1 cell-based luminescence activation counterscreen
Activity calls are given as the source filed them. No rule for the calls is given here.
Write down one outcome, taken from active, inactive

compound: CCOC(=O)C1CCN(C(=O)c2ccc(N(C)C)cc2)CC1
classification: inactive

IN: Field: outcome | Entry: CCOC(=O)C1(CCc2ccccc2)CCN(Cc2ccc(C#CC(C)(C)O)cc2)CC1
OUT: inactive

IN: Next entry: CCOC(=O)C1(CC2CC2)CCN(Cc2ccc(NC(C)=O)cc2)CC1
OUT: inactive

IN: Next record, please: CCOC(=O)C1(CCc2ccccc2)CCCN(Cc2ccc(N3CCNC3=O)cc2)C1 (configuration not stated)
OUT: inactive

IN: Further, for CCOC(=O)C1(Cc2ccccc2Cl)CCN(Cc2ccc(NC(C)=O)cc2)CC1 ?
OUT: active

IN: CCOC(=O)C1(CC2CC2)CCN(C(=O)c2ccc(N3CCCCC3)cc2)CC1 ?
OUT: inactive

IN: Here is the next compound: CC(=O)Nc1ccc(CN2CCCC(CO)(CCc3ccccc3)C2)cc1 (configuration not stated)
OUT: inactive

IN: What do you have for CCOC(=O)C1(CCc2ccccc2)CCN(C(=O)Nc2ccc(C)cc2C)CC1 ?
OUT: inactive

IN: Next: CCOC(=O)C1(CCc2ccccc2)CCN(Cc2ccc(OC)cc2)CC1
OUT: inactive

IN: Thanks! And CCOC(=O)C1(CCOC)CCCN(Cc2ccc(NC(C)=O)cc2)C1 (configuration not stated) ?
OUT: inactive

IN: Similarly, CCOC(=O)C1(CCc2ccccc2)CCN(Cc2ccncc2)CC1 ?
OUT: inactive

IN: CCOC(=O)C1(CCc2ccccc2)CCN(Cc2c(O)cccc2OC)CC1 ?
OUT: inactive
